The values you see were collected from paper PMC9352680.

log10 Kd values by entry
Molecular target: T1, PUF4 RNA-binding domain (Saccharomyces cerevisiae, UniProt P25339 537-888)
T1 sequence: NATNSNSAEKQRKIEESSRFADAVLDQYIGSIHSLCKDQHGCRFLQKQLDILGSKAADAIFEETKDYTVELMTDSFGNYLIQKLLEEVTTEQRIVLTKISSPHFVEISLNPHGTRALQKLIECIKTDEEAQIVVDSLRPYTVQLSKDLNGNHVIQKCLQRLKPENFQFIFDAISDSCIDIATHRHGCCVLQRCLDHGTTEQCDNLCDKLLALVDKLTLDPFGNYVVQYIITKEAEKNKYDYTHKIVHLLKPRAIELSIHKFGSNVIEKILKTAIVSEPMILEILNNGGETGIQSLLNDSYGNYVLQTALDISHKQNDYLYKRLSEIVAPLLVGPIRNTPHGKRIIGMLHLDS
Test: Mg; RNA-MaP; 20 mM Na-HEPES pH 7.4, 30 mM KOAc, 0.75 mM MgCl2, 0.1% Tween-20, 5% glycerol, 0.1 mg/mL BSA, 2 mM DTT; 25 C; 0.0125-409.6 nM protein
Conditions: tags: N-His6-TEV cleaved; C-SNAP kept, Cy3B-labelled; label: tethered on chip by stalled RNA polymerase
Record value = log10 of Kd given in nM.

Please review the following examples before continuing.
1) UCUCUUUCCCGUAUAUUAUCUCUU (ssRNA) [Ie_S1_P4E.1_K4.1_C4.1_H4.1_[+1CCC]_A4.1_F4.1_T4.1] = 1.34
2) UCUCUUAUUAUAUUAUUAUUUCUCUU (ssRNA) [Id_ii_S1_P5E.3_K5.2_C5.2_[C-2A]_H5.2_A5.1_F5.1_T5.2_[A12T]] = 2.20
3) Id_iii_S2_P4E.6_K4.2_C4.3_[C-2G]_H4.2_A4.1_F4.1_T4.2 (ssRNA) RNA: UUUGAUUAAUAUGAUAUCGUUCUUUCUUGUUAUAUAUUAGUUUCUUUCUCGAUAUCAUAUUAAUCUUU = 1.12
4) Ib_S4_P5E.1_K5.1_C5.1_H5.1_[A4C]_A5.1_[T5C]_F5.1_T5.1 (ssRNA) RNA: UUUGACAACUGAUCGUUCUUUCUUGUCCUAUUAUUCUUUCUCGAUCAGUUGUCUUU = 1.30

# next binder below
INPUT: Endpoint output: log10 Kd of Ic_S2_P5E.1_K5.1_C5.1_H5.1_A5.1_[T5G]_F5.1_[T8A]_[T9C]_[A10C]_T5.1 (ssRNA) RNA: UUUGAUUAAUAUGAUAUCGUUCUUUCUUGUAGUAACCUUCUUUCUCGAUAUCAUAUUAAUCUUU . Value?
OUTPUT: 2.92
